Target: human TRPV1 (Homo sapiens, UniProt Q8NER1)
Construct: expressed in transfected cells; host or cells: HEK-293
Sequence (Q8NER1 whole entry): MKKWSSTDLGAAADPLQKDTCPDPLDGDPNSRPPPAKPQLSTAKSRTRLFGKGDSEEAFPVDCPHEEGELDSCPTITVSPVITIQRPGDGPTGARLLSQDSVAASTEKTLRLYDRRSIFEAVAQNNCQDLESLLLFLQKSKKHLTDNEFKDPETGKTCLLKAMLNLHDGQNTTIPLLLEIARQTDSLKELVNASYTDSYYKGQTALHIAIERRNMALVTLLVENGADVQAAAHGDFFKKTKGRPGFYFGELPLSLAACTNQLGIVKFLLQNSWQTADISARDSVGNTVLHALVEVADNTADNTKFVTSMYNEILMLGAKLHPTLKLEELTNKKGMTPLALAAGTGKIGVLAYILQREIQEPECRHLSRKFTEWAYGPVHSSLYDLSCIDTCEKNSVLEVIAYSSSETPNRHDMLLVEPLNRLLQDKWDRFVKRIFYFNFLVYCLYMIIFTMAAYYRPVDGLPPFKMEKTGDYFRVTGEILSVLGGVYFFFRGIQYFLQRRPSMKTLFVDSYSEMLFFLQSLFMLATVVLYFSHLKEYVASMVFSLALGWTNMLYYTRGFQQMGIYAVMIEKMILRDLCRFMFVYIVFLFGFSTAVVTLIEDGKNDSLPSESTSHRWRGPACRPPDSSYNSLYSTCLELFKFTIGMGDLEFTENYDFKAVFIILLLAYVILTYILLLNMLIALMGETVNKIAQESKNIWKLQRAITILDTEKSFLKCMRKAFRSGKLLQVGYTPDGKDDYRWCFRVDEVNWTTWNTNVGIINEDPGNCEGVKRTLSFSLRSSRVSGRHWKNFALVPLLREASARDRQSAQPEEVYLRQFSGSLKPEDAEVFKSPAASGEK
Assay: intracellular calcium in HEK-293 cells overexpressing human TRPV1
Assay type: cell-based
Details: in DMSO, 4 μM ionomycin as maximum reference, read-out: pEC50 DMSO (pEC50 values for TPVR1) (converted)
Would you mind telling me the reported EC50 of each entry?
API: value field is a number in nM; no unit string.

Which value of EC50 has been reported for CCCCCC[C@H](CC1OC1CCCCCCCC(=O)NCc1ccc(O)c(OC)c1)OC(=O)Cc1ccccc1 (stereo partly shown) in the records?
5.37

# EC50 lookup, item "CCCCCC[C@H](C/C=C\CCCCCCCC(=O)NCc1ccc(O)c(OC)c1)OC(C)=O"
0.501

Which EC50 value belongs to CCCCCC[C@H](CC1CC1CCCCCCCC(=O)NCc1ccc(O)c(OC)c1)OC(=O)Cc1ccccc1 (stereo partly shown) ?
0.12

Return reported EC50; argument: "CCCCCC[C@H](C/C=C\CCCCCCCC(=O)NCc1ccc(O)c(OC)c1)OC(=O)c1ccccc1"
0.129

* * *

Molecular target: human TRPV1 (Homo sapiens, UniProt Q8NER1)
Construct: expressed in transfected cells; host or cells: HEK-293
Experiment: intracellular calcium in HEK-293 cells overexpressing human TRPV1
Type: cell-based
Details: pEC50 DMSO (pEC50 values for TPVR1), in DMSO, 4 μM ionomycin as maximum reference
measurement.label: EC50 (nM)
Answer in nM, number only, no unit symbol.

What does the data say about its EC50? Entry: "CCCCCC[C@H](C/C=C\CCCCCCCC(=O)NCc1ccc(O)c(OC)c1)OC(=O)Cc1ccccc1"
0.102

Data credit: patent US7429673B2
